target: PI3 Kinase; assay: PI3K fluorescence polarization assay; settings: 25 μM ATP, diC8-PI(4,5)P2 substrate, 1 hour at 25° C.; read-out: PI3 Kinase Median IC50
So I've got a bunch of compounds here, and I need their IC50 values.
Enter your answer as a number in nM; do not include the unit.

# query: IC50 | item Oc1cncc(-c2nc(N3CCOCC3)c3ncn(C4CCN(Cc5ccc(F)nc5)CC4)c3n2)c1 [Compound 88] | system: PI3 Kinase
85

Could you do the same for Nc1ccc(-c2nc(N3CCOCC3)c3ncn(C4CCN(Cc5ccccc5)CC4)c3n2)cn1 [Compound 32] , please?
160

Could you do the same for O=Cc1cncc(-c2nc(N3CCOCC3)c3ncn(C4CCN(Cc5ccccc5)CC4)c3n2)c1 [Compound 34] , please?
77

---

biological target: human TOR (Homo sapiens, UniProt P42345); construct: FLAG; assay: mTOR enzyme assay (DELFIA format, purified FLAG-TOR, His6-S6K substrate); format: biochemical; conditions: 100 μM ATP, 1.25 μM His6-S6K, 2 hours at room temperature; read-out: TOR Kinase Median IC50
So I've got a bunch of compounds here, and I need their pIC50 values.
// pIC50 here means minus log10 of the molar concentration (mol/L)

# query: pIC50 | item `c1ccc(-c2nc(N3CCOCC3)c3nc[nH]c3n2)cc1` | system: human TOR (Homo sapiens, UniProt P42345)
4.72

Could you do the same for `OCc1cccc(-c2nc(N3CCOCC3)c3ncn(C4CCN(Cc5c(F)cc(F)cc5F)CC4)c3n2)c1` , please?
5.48

Could you do the same for `OCc1cccc(-c2nc(N3CCOCC3)c3ncn(C4CCN(Cc5ccc(-c6ccncc6)cc5)CC4)c3n2)c1` , please?
6.14

Could you do the same for `Oc1cccc(-c2nc(N3CCOCC3)c3ncn(C4CCN(Cc5ccc(N6CCOCC6)nc5)CC4)c3n2)c1` , please?
6.84

---

So I've got a bunch of molecules here, and I need their pIC50 values.
biological target: PI3 Kinase; experiment: PI3K fluorescence polarization assay; assay type: biochemical; details: 25 μM ATP, diC8-PI(4,5)P2 substrate, 1 hour at 25° C.; read-out: PI3 Kinase Median IC50
// pIC50 here means minus log10 of the molar concentration (mol/L)

# query: pIC50 | item Oc1cncc(-c2nc(N3CCOCC3)c3ncn(C4CCN(Cc5ccc(F)nc5)CC4)c3n2)c1 [Compound 41] | system: PI3 Kinase
7.03

Could you do the same for Nc1ncc(-c2nc(N3CCOCC3)c3ncn(C4CCN(Cc5ccccc5)CC4)c3n2)cn1 [Compound 31] , please?
7.37

Could you do the same for c1nc2c(N3CCOCC3)nc(-c3ccoc3)nc2[nH]1 [Compound 19, 2-(3-furyl)-6-morpholin-4-yl-9H-purine] , please?
5.36

Could you do the same for Oc1cccc(-c2nc(N3CCOCC3)c3ncn(C4CCN(Cc5ccc(F)nc5)CC4)c3n2)c1 [Compound 84] , please?
7.15

---

target: human TOR (Homo sapiens); construct: FLAG; test: mTOR enzyme assay (DELFIA format, purified FLAG-TOR, His6-S6K substrate); conditions: 100 μM ATP, 1.25 μM His6-S6K, 2 hours at room temperature; read-out: TOR Kinase Median IC50
So I've got a bunch of molecules here, and I need their IC50 values.
Enter your answer as a number in nM; do not include the unit.

Given the molecule O=Cc1cncc(-c2nc(N3CCOCC3)c3ncn(C4CCN(Cc5ccccc5)CC4)c3n2)c1 [Compound 34] , what is its reported IC50?
170

Could you do the same for OCc1cccc(-c2nc(N3CCOCC3)c3ncn(C4CCN(Cc5ccccc5F)CC4)c3n2)c1 [Compound 45] , please?
160

---

molecular target: human TOR (Homo sapiens); construct: FLAG; experiment: mTOR enzyme assay (DELFIA format, purified FLAG-TOR, His6-S6K substrate); assay type: biochemical; details: 100 μM ATP, 1.25 μM His6-S6K, 2 hours at room temperature; read-out: TOR Kinase Median IC50
Recorded Endpoint: IC50

Given the compound COc1ccc(CN2CCC(n3cnc4c(N5CCOCC5)nc(-c5cccc(CO)c5)nc43)CC2)cn1 [Compound 64] , what is its reported IC50?
> 4 µM

Could you do the same for Clc1cc(-c2nc(N3CCOCC3)c3nc[nH]c3n2)ccc1OCc1ccccc1 [Compound 24] , please?
> 20 µM

Could you do the same for Cc1ccc(CN2CCC(n3cnc4c(N5CCOCC5)nc(-c5cccc(CO)c5)nc43)CC2)s1 [Compound 67] , please?
> 4 µM
